From: patent US20240317858A1

- Measurement target: T1, Human CD3εδ Fc heterodimer (Hu CD3ε Fc + CD3δ Fc-HIS) (human, UniProt P07766 22-126; P04234 22-100)
- T1 construct: range 22-126;range 22-100; Made in HEK 293 cells with a heterologous signal peptide; also called Hu CD3εδ-Fc; CD3εδ Fc-HIS heterodimer; not shown: Fc; Fc followed by HIS tag
- T1 sequence (P07766 22-126, stated change not applied, form in doubt, chain 1 of 2): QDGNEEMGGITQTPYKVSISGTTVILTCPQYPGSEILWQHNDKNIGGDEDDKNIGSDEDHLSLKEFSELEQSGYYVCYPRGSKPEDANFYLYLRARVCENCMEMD
- T1 sequence (P04234 22-100, stated change not applied, form in doubt, chain 2 of 2): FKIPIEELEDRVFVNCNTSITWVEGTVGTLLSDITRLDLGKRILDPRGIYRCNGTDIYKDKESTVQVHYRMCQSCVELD
- Measurement notes: BLI (Octet), Fab monovalent, pH 6.0
- Description: ForteBio KD measurements (Biolayer interferometry; BLI). […] Sensors were equilibrated off-line in assay buffer for 30 min and then monitored on-line for 60 seconds for baseline establishment. […] Kinetics were analyzed using the 1:1 binding model. For measuring binding at different pHs, measurements were performed at pre-determined pHs (e.g., pH 7.4 and pH 6.0). […]
We begin with a simple list: items and their reported pKd.
Note: pKd values are expressed as the negative base-10 logarithm of concentration in M.

[[record]]
binder = "Antibody No. V010 (ADI-70327) Fab (Fab, V domains shown, Fab by papain digestion of the IgG1) VH: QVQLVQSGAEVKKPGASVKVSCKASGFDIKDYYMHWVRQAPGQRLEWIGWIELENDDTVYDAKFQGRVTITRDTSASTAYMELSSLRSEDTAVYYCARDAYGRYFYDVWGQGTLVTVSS VL: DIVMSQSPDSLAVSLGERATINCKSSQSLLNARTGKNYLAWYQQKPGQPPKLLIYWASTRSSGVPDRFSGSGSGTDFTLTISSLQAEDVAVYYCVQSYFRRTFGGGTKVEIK"
experimental_value = 8.70

[[record]]
binder = "Antibody No. V016 (ADI-76359) Fab (Fab, V domains shown, Fab by papain digestion of the IgG1) VH: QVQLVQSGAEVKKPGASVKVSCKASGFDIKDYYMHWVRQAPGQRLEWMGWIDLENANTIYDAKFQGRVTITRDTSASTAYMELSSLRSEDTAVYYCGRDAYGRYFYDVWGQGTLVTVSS VL: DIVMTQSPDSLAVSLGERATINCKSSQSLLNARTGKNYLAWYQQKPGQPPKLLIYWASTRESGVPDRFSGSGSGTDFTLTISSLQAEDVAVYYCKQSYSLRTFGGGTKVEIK"
experimental_value = 7.43

[[record]]
binder = "Antibody No. V019 (ADI-76362) Fab (Fab, V domains shown, Fab by papain digestion of the IgG1) VH: QVQLVQSGAEVKKPGASVKVSCKASGFNIKDYYMHWVRQAPGQRLEWMGWIDLEEGDTIYDAKFQGRVTITRDTSASTAYMELSSLRSEDTAVYYCARDAYGRYFYDVWGQGTLVTVSS VL: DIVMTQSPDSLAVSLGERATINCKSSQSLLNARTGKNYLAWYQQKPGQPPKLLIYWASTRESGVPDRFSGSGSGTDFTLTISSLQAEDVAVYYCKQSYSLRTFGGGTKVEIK"
experimental_value = 7.44

[[record]]
binder = "Antibody No. A002 (ADI-50024) Fab (Fab, V domains shown, Fab by papain digestion of the IgG1) VH: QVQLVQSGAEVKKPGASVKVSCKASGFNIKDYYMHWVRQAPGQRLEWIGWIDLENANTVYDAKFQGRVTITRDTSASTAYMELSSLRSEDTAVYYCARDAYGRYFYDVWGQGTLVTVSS VL: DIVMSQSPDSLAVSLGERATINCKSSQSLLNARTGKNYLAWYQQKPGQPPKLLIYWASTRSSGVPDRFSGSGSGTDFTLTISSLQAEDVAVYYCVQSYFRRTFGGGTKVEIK"
experimental_value = 8.89

[[record]]
binder = "Antibody No. V015 (ADI-76358) Fab (Fab, V domains shown, Fab by papain digestion of the IgG1) VH: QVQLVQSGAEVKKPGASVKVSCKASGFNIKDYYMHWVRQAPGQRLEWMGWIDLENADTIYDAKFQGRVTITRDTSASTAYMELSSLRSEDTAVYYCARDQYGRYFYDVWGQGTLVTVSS VL: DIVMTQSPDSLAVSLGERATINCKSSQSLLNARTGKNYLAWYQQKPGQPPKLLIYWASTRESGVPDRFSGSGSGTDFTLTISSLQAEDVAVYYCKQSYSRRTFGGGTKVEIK"
experimental_value = 7.47

[[record]]
binder = "Antibody No. A001 (ADI-26906) Fab (Fab, V domains shown, Fab by papain digestion of the IgG1) VH: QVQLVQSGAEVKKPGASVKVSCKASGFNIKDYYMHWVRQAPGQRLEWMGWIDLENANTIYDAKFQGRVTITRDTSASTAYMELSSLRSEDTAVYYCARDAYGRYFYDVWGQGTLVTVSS VL: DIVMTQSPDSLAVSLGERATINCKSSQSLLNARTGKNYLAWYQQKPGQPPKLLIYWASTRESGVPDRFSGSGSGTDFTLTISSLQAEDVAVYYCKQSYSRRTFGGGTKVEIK"
experimental_value = 8.24

[[record]]
binder = "Antibody No. V014 (ADI-76357) Fab (Fab, V domains shown, Fab by papain digestion of the IgG1) VH: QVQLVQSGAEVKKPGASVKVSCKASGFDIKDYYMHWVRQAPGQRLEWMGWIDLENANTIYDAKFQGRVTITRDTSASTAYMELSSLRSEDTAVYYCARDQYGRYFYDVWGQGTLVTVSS VL: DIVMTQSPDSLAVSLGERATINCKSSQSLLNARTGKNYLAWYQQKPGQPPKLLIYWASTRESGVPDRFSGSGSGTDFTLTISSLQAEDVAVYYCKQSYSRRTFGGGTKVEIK"
experimental_value = 7.62

[[record]]
binder = "Antibody No. A003 (ADI-26913) Fab (Fab, V domains shown, Fab by papain digestion of the IgG1) VH: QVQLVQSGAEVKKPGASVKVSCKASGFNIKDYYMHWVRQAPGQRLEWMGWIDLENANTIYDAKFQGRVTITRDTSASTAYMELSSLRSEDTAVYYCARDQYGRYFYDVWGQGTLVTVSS VL: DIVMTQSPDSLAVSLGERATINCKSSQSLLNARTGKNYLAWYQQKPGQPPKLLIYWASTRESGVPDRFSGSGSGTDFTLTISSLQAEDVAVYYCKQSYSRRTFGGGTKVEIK"
experimental_value = 7.54

[[record]]
binder = "Antibody No. V007 (ADI-67450) Fab (Fab, V domains shown, Fab by papain digestion of the IgG1) VH: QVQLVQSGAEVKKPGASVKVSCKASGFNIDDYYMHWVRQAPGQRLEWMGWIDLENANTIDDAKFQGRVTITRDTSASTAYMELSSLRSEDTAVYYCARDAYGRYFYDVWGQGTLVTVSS VL: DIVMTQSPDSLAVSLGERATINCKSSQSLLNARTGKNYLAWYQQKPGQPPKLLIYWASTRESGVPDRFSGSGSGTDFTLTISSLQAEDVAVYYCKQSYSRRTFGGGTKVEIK"
experimental_value = 8.16


Query binder follows.
Data request, read-out pKd, for Antibody No. V002 (ADI-67445) Fab (Fab, V domains shown, Fab by papain digestion of the IgG1) VH: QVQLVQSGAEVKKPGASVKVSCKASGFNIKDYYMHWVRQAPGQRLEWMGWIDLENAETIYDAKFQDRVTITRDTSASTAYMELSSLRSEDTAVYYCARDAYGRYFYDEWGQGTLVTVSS VL: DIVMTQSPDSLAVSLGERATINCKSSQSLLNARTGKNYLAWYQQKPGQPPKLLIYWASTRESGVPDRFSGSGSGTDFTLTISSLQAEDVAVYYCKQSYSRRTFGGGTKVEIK
8.06
